Listing of entries alongside the reported T/C.
tested on: P388 leukemia ip, CD2F1 mice, survival T/C; assay: NCI In Vivo Anticancer Drug Screen. Data for tumor model P388 Leukemia (intraperitoneal) in CD2F1 (CDF1) mice; settings: endpoint: median survival time; dose: 25.0 mg/kg/injection; schedule: Q01DX009 (ip); vehicle: saline with Tween-80; higher = longer survival
Inconclusive results and toxic doses are left out.
Recorded metric: T/C

Compound | Target entity | Observed value
O=[N+]([O-])c1cc(F)ccc1O | P388 leukemia ip, CD2F1 mice, survival T/C | 104 % of control
CC(C#N)CCCC#N (stereo unspecified) | P388 leukemia ip, CD2F1 mice, survival T/C | 100 % of control
Cc1cc(C)c(S(=O)(=O)NN)c(C)c1 | P388 leukemia ip, CD2F1 mice, survival T/C | 104 % of control
O=C(NC(=S)Nc1ncn[nH]1)c1ccc(Cl)c(Cl)c1 | P388 leukemia ip, CD2F1 mice, survival T/C | 100 % of control
CCCCCCCCSc1nc(Nc2cc(C(C)(C)C)c(O)c(C(C)(C)C)c2)nc(SCCCCCCCC)n1 | P388 leukemia ip, CD2F1 mice, survival T/C | 104 % of control
CN(C)/C=N\c1ncnc2c1ncn2C1OC(CO)C(O)C1O (stereo unspecified) | P388 leukemia ip, CD2F1 mice, survival T/C | 102 % of control

====

test system: P388 leukemia ip, CD2F1 mice, survival T/C; experiment: NCI In Vivo Anticancer Drug Screen. Data for tumor model P388 Leukemia (intraperitoneal) in CD2F1 (CDF1) mice; conditions: endpoint: median survival time; dose: 200.0 mg/kg/injection; schedule: Q01DX001 (ip); vehicle: saline with Tween-80; higher = longer survival
Toxic doses and inconclusive results are not listed.

Compound | T/C
Cc1ccc(NC(=S)NC2C(=O)Nc3ccccc32)cc1 (stereo not given) | 93 % of control
c1ccc(N2CCCCCN2c2ccccc2)cc1 | 92 % of control
C=Cc1ccc(NC(=O)CCn2ccc(N)nc2=O)cc1 | 102 % of control
COC1=CC2C3C(=O)NC(=O)C3C1C1CC(C#N)C21OC (stereo not given) | 114 % of control
S=c1nn[nH]c2[nH]ncc12 | 102 % of control
CC1C=CC(C)N(C(N)=O)N1C(N)=O (stereo not given) | 100 % of control
NC(=O)c1cc2c3ccccc3ncc2c2ccccc12 | 100 % of control
Cc1ccc(S(=O)(=O)Nc2ccc3nc(C)oc3c2)cc1 | 100 % of control
CCc1nc(Cc2ccccc2)nc2c1nc(-c1ccccc1)n2Nc1ccccc1 | 98 % of control
C=C(C)C1(n2[nH]c(=O)n(-c3ccccc3)c2=O)CCC(C)=CC1=O (stereo not given) | 95 % of control

====

system: P388 leukemia ip, CD2F1 mice, survival T/C; test: NCI In Vivo Anticancer Drug Screen. Data for tumor model P388 Leukemia (intraperitoneal) in CD2F1 (CDF1) mice; settings: endpoint: median survival time; dose: 400.0 mg/kg/injection; schedule: Q01DX001 (ip); vehicle: saline with Tween-80; higher = longer survival
Toxic doses and inconclusive results are not listed.
Recorded metric: T/C

Compound | Recorded metric | Observed value
CN1CCCC(Cc2ccccc2)S1(=O)=O (stereo not drawn) | T/C | 98 % of control
Cc1ccc(S(=O)(=O)NC(=O)NC(=S)c2cccc3ccccc23)cc1 | T/C | 102 % of control
Cc1ccc(S(=O)(=O)Nc2ccc3nc(C)oc3c2)cc1 | T/C | 100 % of control
Cc1cc(=O)oc2c(C)c3occc(=O)c3cc12 | T/C | 87 % of control
CCc1nc(Cc2ccccc2)nc2c1nc(-c1ccccc1)n2Nc1ccccc1 | T/C | 92 % of control
C=C(C)C1(n2[nH]c(=O)n(-c3ccccc3)c2=O)CCC(C)=CC1=O (stereo not drawn) | T/C | 87 % of control
O=C1/C(=C/c2ccc(O)cc2)Oc2cc(O)ccc21 | T/C | 92 % of control
CSc1nc2c(Br)cnn2c(=O)[nH]1 | T/C | 100 % of control

====

tested on: P388 leukemia ip, CD2F1 mice, survival T/C; assay: NCI In Vivo Anticancer Drug Screen. Data for tumor model P388 Leukemia (intraperitoneal) in CD2F1 (CDF1) mice; conditions: endpoint: median survival time; dose: 100.0 mg/kg/injection; schedule: Q01DX009 (ip); vehicle: distilled water + Tween-80; higher = longer survival
Inconclusive results and toxic doses are left out.
Listing of entries alongside the reported T/C.

Molecule | Target entity | T/C
O=C(CSC(=S)N1CCCCC1)c1ccccc1 | P388 leukemia ip, CD2F1 mice, survival T/C | 101 % of control
CCOC(=O)C(=O)C1Cc2ccc3ccc(OC)cc3c2C1=O (centres undefined) | P388 leukemia ip, CD2F1 mice, survival T/C | 94 % of control
CC(=O)OCC(Cn1ccnc1[N+](=O)[O-])OC(C)=O (centres undefined) | P388 leukemia ip, CD2F1 mice, survival T/C | 111 % of control
CC(=O)N1CCc2cc([N+](=O)[O-])cc(Br)c21 | P388 leukemia ip, CD2F1 mice, survival T/C | 98 % of control

====

Listing of entries alongside the reported T/C.
test system: P388 leukemia ip, CD2F1 mice, survival T/C; assay: NCI In Vivo Anticancer Drug Screen. Data for tumor model P388 Leukemia (intraperitoneal) in CD2F1 (CDF1) mice; settings: endpoint: median survival time; dose: 100.0 mg/kg/injection; schedule: Q01DX009 (ip); vehicle: saline with Tween-80; higher = longer survival
Toxic doses and inconclusive results are not listed.

Molecule | T/C
CCOC(=O)C(Cc1ccccc1)NC(=O)N(CCCl)CCCl (stereo not drawn) | 109 % of control
CCOCCSc1ccccc1 | 112 % of control
COc1ccc(NC(=S)NC(=O)c2ccccc2)cc1OC | 100 % of control

====

test system: P388 leukemia ip, CD2F1 mice, survival T/C; test: NCI In Vivo Anticancer Drug Screen. Data for tumor model P388 Leukemia (intraperitoneal) in CD2F1 (CDF1) mice; conditions: endpoint: median survival time; dose: 200.0 mg/kg/injection; schedule: Q04DX003 (ip); vehicle: saline; higher = longer survival
Toxic doses and inconclusive results are not listed.

Item smiles | T/C
COC(=O)C(C)=O | 90 % of control
O=[N+]([O-])c1cccc2c(S(=O)(=O)O)cccc12 | 90 % of control
Sc1cn2ccccc2n1 | 103 % of control
Cc1cc(Cl)ccc1N1C(=O)[N+](C)(C)N=C1[O-] | 103 % of control
CCOP(O)(=S)OCC | 90 % of control
Brc1ccc(N=Cc2cccs2)cc1 | 99 % of control
COc1ccncc1CCc1cnccc1OC | 93 % of control

====

tested on: P388 leukemia ip, CD2F1 mice, survival T/C; experiment: NCI In Vivo Anticancer Drug Screen. Data for tumor model P388 Leukemia (intraperitoneal) in CD2F1 (CDF1) mice; conditions: endpoint: median survival time; dose: 25.0 mg/kg/injection; schedule: Q01DX009 (ip); vehicle: distilled water + Tween-80; higher = longer survival
Toxic doses and inconclusive results are not listed.
Recorded metric: T/C

Compound | Target entity | Recorded metric | Observed value
CCOC(=O)C(=O)C1Cc2ccc3ccc(OC)cc3c2C1=O (centres undefined) | P388 leukemia ip, CD2F1 mice, survival T/C | T/C | 112 % of control
O=C(CSC(=S)N1CCCCC1)c1ccccc1 | P388 leukemia ip, CD2F1 mice, survival T/C | T/C | 101 % of control
CCOc1cc2cc(CCC(=O)O)c(C)cc2cn1 | P388 leukemia ip, CD2F1 mice, survival T/C | T/C | 103 % of control
COC(=O)C1=C(C(=O)OC)CCC1 | P388 leukemia ip, CD2F1 mice, survival T/C | T/C | 97 % of control

====

Listing of entries alongside the reported T/C.
system: P388 leukemia ip, CD2F1 mice, survival T/C; assay: NCI In Vivo Anticancer Drug Screen. Data for tumor model P388 Leukemia (intraperitoneal) in CD2F1 (CDF1) mice; conditions: endpoint: median survival time; dose: 200.0 mg/kg/injection; schedule: Q01DX009 (ip); vehicle: saline with Tween-80; higher = longer survival
Toxic doses and inconclusive results are not listed.

Compound | Target entity | T/C
CCOCCSc1ccccc1 | P388 leukemia ip, CD2F1 mice, survival T/C | 105 % of control
O=C1c2cc(O)c(O)cc2O[C@H](c2ccc(O)c(O)c2)[C@H]1O | P388 leukemia ip, CD2F1 mice, survival T/C | 110 % of control
CCOC(=O)C(Cc1ccccc1)NC(=O)N(CCCl)CCCl (centres undefined) | P388 leukemia ip, CD2F1 mice, survival T/C | 122 % of control
O=C1C(Cl)=C(Sc2nnc3c4ccccc4c4ccccc4c3n2)C(=O)c2ccccc21 | P388 leukemia ip, CD2F1 mice, survival T/C | 99 % of control
